Each recorded value in this set is attributed to patent US7790474B1.

# Test system: GST-p53 DNA binding domain (aa 92-aa 312)
# run_description: Scintillation Proximity Assay (displacement of 3H-labeled p53 binder)
# condition_label: percentage of 3H-labeled ligand remaining bound, number in brackets = average of n
result_type: SPA ASSAY % Residual T @ 2 ug/mL of drug (Average of)

Name the recorded SPA ASSAY % Residual T @ 2 ug/mL of drug (Average of) for COc1ccc(NC(=O)N2CCN(Cc3nc(NCCCN(C)C)c4ccccc4n3)CC2)cc1 .
38.0%

What about this compound? CN(C)CCCNc1nc(CN(C)Cc2ccc(Oc3ccccc3)cc2)nc2ccccc12
54.0%

What about this compound? CN(C)CCCC[C@H](Nc1nc(CN2CCN(C(c3ccc(Cl)cc3)c3ccc(Cl)cc3)CC2)nc2ccccc12)C(N)=O
58.5%

What about this compound? COC(=O)[C@@H](Nc1nc(CN2CCN(C(=O)Nc3ccc(C(C)C)cc3)CC2)nc2ccccc12)C(C)C
39.5%

What about this compound? O=c1[nH]c2ccccc2n1C1CCN(c2nc(CN3CCN(C(c4ccc(Cl)cc4)c4ccc(Cl)cc4)CC3)nc3ccccc23)CC1
47.9%

What about this compound? COC(=O)[C@@H](Nc1nc(CNC(=O)Nc2cc(Cl)cc(Cl)c2)nc2ccccc12)C(C)C
52.3%

What about this compound? CN(C)CCCNc1nc(CN2CCN(C(c3ccccc3)c3ccc(OC(F)(F)F)cc3)CC2)nc2ccccc12 (stereo not shown) [Formula 10]
46.1%

What about this compound? CN(C)CCCNc1nc(CN(C)C2CCCCC2)nc2ccccc12
45.5 (3) %

What about this compound? CC(=O)N1CCC(N(C)Cc2nc(NCCCN(C)C)c3ccccc3n2)CC1
47.7 (3) %

What about this compound? CN(C)CCCNc1nc(CN(C)Cc2cccc(Cl)c2Cl)nc2ccccc12
61.1%

What about this compound? COC(=O)C1CCN(c2nc(CN3CCN(C(c4ccc(Cl)cc4)c4ccc(Cl)cc4)CC3)nc3ccccc23)CC1
62.7%

What about this compound? CN(C)CCCNc1nc(CN(C)Cc2ccc(C#N)cc2)nc2ccccc12
54.1%

What about this compound? COC(=O)[C@@H](Nc1nc(CNC(=O)Nc2ccccc2-c2ccccc2)nc2ccccc12)C(C)C
52.7%

What about this compound? CN(C)[C@@H]1CCN(c2nc(CN3CCN(C(c4ccc(Cl)cc4)c4ccc(Cl)cc4)CC3)nc3ccccc23)C1
53.0%

What about this compound? CN(C)CCCNc1nc(CN(C)C2CCN(C(=O)c3ccccc3)CC2)nc2ccccc12
20.7 (2) %

What about this compound? CN(C)CCCNc1nc(CN(C)Cc2cccc3cc[nH]c23)nc2ccccc12
25.7%

What about this compound? CN(C)CCCNc1nc(CN(C)C2CCC(C(F)(F)F)CC2)nc2ccccc12 (stereo not shown)
52.8%

What about this compound? CN(C)CCCNc1nc(CN(Cc2ccccc2)Cc2ccccc2)nc2ccccc12
61.7%

What about this compound? CN(C)CCCNc1nc(CN(C)Cc2cccc3c2OCO3)nc2ccccc12
46.8%

What about this compound? CN(Cc1ccccc1)Cc1nc2ccccc2c(=O)[nH]1
36.8%

What about this compound? CN(C)CCCNc1nc(CN(C)C2CCC2)nc2ccccc12
66.5%

What about this compound? OC1CCN(c2nc(CN3CCN(C(c4ccc(Cl)cc4)c4ccc(Cl)cc4)CC3)nc3ccccc23)C1 (stereo not shown)
70.0%

What about this compound? CN(C)CCCNc1nc(CN(C)Cc2ccccc2OCC(=O)O)nc2ccccc12
60.1 (3) %

What about this compound? Cc1cc(C)c(NC(=O)N2CCN(Cc3nc(NCCCN(C)C)c4ccccc4n3)CC2)c(C)c1
53.0%

What about this compound? CNCc1nc(NCCCN(C)C)c2ccccc2n1
42.6%

What about this compound? CN(C)CCCNc1nc(CN(C)Cc2ccccc2C(=O)O)nc2ccccc12
65.6%

What about this compound? CN(C)CCCNc1nc(CN(C)Cc2cccc(C(F)(F)F)c2)nc2ccccc12
48.4 (3) %

What about this compound? Cc1cccc(C)c1CN(C)Cc1nc(NCCCN(C)C)c2ccccc2n1
69.7%

What about this compound? CCOC(=O)C1CC1CN(C)Cc1nc(NCCCN(C)C)c2ccccc2n1 (stereo not shown)
57.8%

What about this compound? CN(C)CCCNc1nc(CN(C)CC2CCCCC2)nc2ccccc12
57.0%

What about this compound? COC(=O)[C@@H](Nc1nc(CNC(=O)Nc2ccc(Cl)c(Cl)c2)nc2ccccc12)C(C)C
57.0%

What about this compound? CCC(C)(C)C1CCC(N2CCN(Cc3nc(NCCCN(C)C)c4ccccc4n3)CC2)C1 (stereo not shown)
55.7%

What about this compound? Cc1c(CN(C)Cc2nc(NCCCN(C)C)c3ccccc3n2)sc2ccccc12
23.6 (3) %

What about this compound? CN(C)CCCNc1nc(CN(C)Cc2c(F)cccc2F)nc2ccccc12
58.9%

====

# Tested on: GST-p53 DNA binding domain (aa 92-aa 312)
# run_description: Scintillation Proximity Assay (displacement of 3H-labeled p53 binder)
# condition_label: percentage of 3H-labeled ligand remaining bound, number in brackets = average of n
result_type: SPA ASSAY % Residual T @ 2 ug/mL of drug (Average of) (%)
Give a bare numeral; the unit % is implied.

Name the recorded SPA ASSAY % Residual T @ 2 ug/mL of drug (Average of) for CC(C)COC(=O)[C@H](CCCN(C)C)Nc1nc(CN2CCN(C(c3ccc(Cl)cc3)c3ccc(Cl)cc3)CC2)nc2ccccc12 [Formula 117] .
72.5

What about this compound? Clc1ccc(C(c2ccc(Cl)cc2)N2CCN(Cc3nc(N4CCOCC4)c4ccccc4n3)CC2)cc1 [Formula 41]
63.1

What about this compound? CN(C)CCCNc1nc(CN2CCN(Cc3cccc4cc[nH]c34)CC2)nc2ccccc12 [Formula 13]
37.9

What about this compound? CN(C)CCC[C@H](Nc1nc(CN2CCN(C(c3ccc(Cl)cc3)c3ccc(Cl)cc3)CC2)nc2ccccc12)C(N)=O [Formula 118]
58.6

====

# Test system: GST-p53 DNA binding domain (aa 92-aa 312)
# run_description: Scintillation Proximity Assay (displacement of 3H-labeled p53 binder)
# condition_label: percentage of 3H-labeled ligand remaining bound, number in brackets = average of n
Assignment: determine reported SPA ASSAY % Residual T @ 2 ug/mL of drug (Average of) for the given compounds.
Give a bare numeral; the unit % is implied.

Reported SPA ASSAY % Residual T @ 2 ug/mL of drug (Average of) for GST-p53 DNA binding domain (aa 92-aa 312), given COC(=O)[C@@H](Nc1nc(CN2CCN(C(=O)NC(c3ccccc3)c3ccccc3)CC2)nc2ccccc12)C(C)C ?
45.6

What about this compound? O=C(C1CCCO1)N1CCN(c2nc(CN3CCN(C(c4ccc(Cl)cc4)c4ccc(Cl)cc4)CC3)nc3ccccc23)CC1 (stereo not shown)
66.0

What about this compound? CN(C)CCCNc1nc(CN(C)Cc2ccccc2)nc2ccccc12
22.2

What about this compound? CC(C)[C@H](Nc1nc(CNC(=O)N[C@H](C)c2ccccc2)nc2ccccc12)C(N)=O
56.8

====

# System: GST-p53 DNA binding domain (aa 92-aa 312)
# run_description: Scintillation Proximity Assay (displacement of 3H-labeled p53 binder)
# condition_label: percentage of 3H-labeled ligand remaining bound, number in brackets = average of n
result_type: SPA ASSAY % Residual T @ 2 ug/mL of drug (Average of)

Name the recorded SPA ASSAY % Residual T @ 2 ug/mL of drug (Average of) for COc1ccc(Cl)cc1NC(=O)N(C)Cc1nc(NCCCN(C)C)c2ccccc2n1 .
48.4%

What about this compound? CN(C)CCCNc1nc(CN(C)Cc2ccoc2)nc2ccccc12
50.7 (3) %

What about this compound? CN(C)CCCNc1nc(CN(C)Cc2cc(Cl)ccc2Cl)nc2ccccc12
49.5 (3) %

What about this compound? CN(C)CCCNc1nc(CN(C)Cc2cccs2)nc2ccccc12
65.5%

====

# System: GST-p53 DNA binding domain (aa 92-aa 312)
# run_description: Scintillation Proximity Assay (displacement of 3H-labeled p53 binder)
# condition_label: percentage of 3H-labeled ligand remaining bound, number in brackets = average of n
result_type: SPA ASSAY % Residual T @ 2 ug/mL of drug (Average of)

Name the recorded SPA ASSAY % Residual T @ 2 ug/mL of drug (Average of) for CC(C)CCN(C)Cc1nc(NCCCN(C)C)c2ccccc2n1 .
31.6 (3) %

What about this compound? CN(C)CCCNc1nc(CN(C)Cc2ccc3ccccc3c2)nc2ccccc12
45.9 (3) %

What about this compound? CN(C)CCCNc1nc(CN(C)Cc2cccn2S(=O)(=O)c2ccccc2)nc2ccccc12
45.1 (3) %
